# System: TK-10
# TEST NAME: NCI tumour cell line growth inhibition, 48 h
Activity calls are given as the source filed them. Rule as the data show it: active = GI50 up to about 1.1 µM and inactive = higher.
Reported values of GI50 for individual entries
REPORTED ENDPOINT: GI50

INSERT INTO results (molecule, result) VALUES
  ('O=C1c2c(ccc3c2CCC3)CC1Cc1ccc2c(c1)CCC2 (configuration not stated)', '29.2 µM (inactive)'),
  ('CCCCCCCCCCCCCC(=O)OCC(CCS(=O)(=O)O[C@H]1CC[C@@]2(C)C(=CC[C@@H]3C2CC[C@]2(C)C(=O)CCC32)C1)OC(=O)CCCCCCCCCCCCC (some centres not stated)', '> 100 µM (inactive)'),
  ('NC(=O)c1nnn(-c2ccccc2)c1O', '> 100 µM (inactive)'),
  ('O=C(Nc1c(C(F)(F)F)cc(-c2ccccc2)[nH]c1=O)N1CCOCC1', '> 100 µM (inactive)'),
  ('O=C(CC(O)(c1ccccc1)c1ccc(Cl)cc1)NC(=O)c1ccccc1O (configuration not stated)', '13.2 µM (inactive)'),
  ('CC(C)(C)OC(=O)N1N=CCC1c1ccccc1 (configuration not stated)', '> 100 µM (inactive)'),
  ('OC1CSCCCSCCSCCCSC1', '> 100 µM (inactive)');

---

# Tested on: UACC-257
# TEST NAME: NCI tumour cell line growth inhibition, 48 h
Activity calls are given as the source filed them. Cut-off read from the data, not from the text of the source: active = GI50 up to about 1.1 µM and inactive = higher.
Reported values of GI50 for individual entries
REPORTED ENDPOINT: GI50

INSERT INTO measurements (molecule, reported_endpoint, result) VALUES
  ('COc1cc2cnc3c4cc(OC)c(OC(C)C)cc4ccc3c2cc1OC', 'GI50', '> 100 µM (inactive)'),
  ('CCCCCCC(C)OC(=O)/C=C(\CC(=O)OC(C)CCCCCC)C(=O)OC(C)CCCCCC (stereo not given)', 'GI50', '> 100 µM (inactive)'),
  ('CCN(CC)CCCNc1nc(=O)[nH]c(C)c1C(=O)Nc1ccc2c(c1)c1ccccc1n2CC', 'GI50', '> 100 µM (inactive)'),
  ('C=C1C[C@@H](O)C[C@@]2(C)C[C@@H]3OC(=O)C(=C)[C@@H]3C[C@H]12', 'GI50', '4.43 µM (inactive)'),
  ('S=C1N(/N=C/c2c3ccccc3cc3ccccc23)C(=N\c2ccccc2)/C(=N/c2ccccc2)N1c1ccccc1', 'GI50', '> 100 µM (inactive)');

---

# Test system: HCT-116
# TEST NAME: NCI tumour cell line growth inhibition, 48 h
Activity calls are given as the source filed them. Rule as the data show it: active = GI50 up to about 1.1 µM and inactive = higher.
Outcomes: active, inactive

INSERT INTO measurements (molecule, label_value) VALUES
  ('Fc1ccc(OCc2ccc3nc(-c4ccccc4)c(Cl)nc3c2)cc1', 'inactive'),
  ('Cc1ccc(C(=O)/C=C2\Nc3ccccc3NC2=O)cc1', 'inactive'),
  ('CC(=O)Nc1cc(N(CCOS(C)(=O)=O)CCOS(C)(=O)=O)ccc1N=O', 'inactive'),
  ('CCOc1c2ccsc2c(OCC)c2ccsc12', 'inactive'),
  ('COc1cc(/C=N/NC(=O)c2c(Cl)c(Cl)c(Cl)c(Cl)c2-c2nc3ccccc3[nH]2)ccc1O', 'inactive'),
  ('CN(C)CCNC(=O)c1cc(Cl)cc2cc3ccccc3nc12', 'active'),
  ('N=C(N)c1ccc2oc3ccc(C(=N)N)cc3c(=O)c2c1', 'inactive'),
  ('CC(C)(CN1CCCCC1)C(=O)/C=C/c1ccc(Cl)cc1', 'inactive'),
  ('O=C(O)C(F)(F)C(F)(F)C(F)(F)C(F)(F)C(F)(F)C(F)(F)C(F)(F)C(F)(F)F', 'inactive'),
  ('C/C(=N/NS(=O)(=O)c1ccccc1)c1cccc[n+]1[O-]', 'inactive'),
  ('CC(C)(C)OC(=O)[C@@H]1CCC(=S)N1Cc1ccccc1', 'inactive'),
  ('CCOC(=O)CNC(=O)NC12CC3CC(CC(C3)C1)C2', 'inactive'),
  ('CCCCCCCCCCCCCCCCOCC(CC(F)(F)P(=O)(O)O)OC(C)=O (stereo not drawn)', 'inactive'),
  ('Cc1ccc(C(=O)/C=C/c2ccccc2O)c(C)c1', 'inactive'),
  ('CSCC1CC(c2ccc(Cl)cc2)=NO1 (stereo not drawn)', 'inactive'),
  ('COC(=O)c1c(C)c2c(c(C)c1C(=O)OC)-c1c(C)ccc3ccc(C)c-2c13', 'inactive'),
  ('COc1ccc(C(=O)Nc2ccc(O)c(=O)cc2)cc1', 'inactive'),
  ('N#CC12COC3(CCCCC3C1(C#N)C#N)OC2=N (stereo not drawn)', 'inactive'),
  ('NS(=O)(=O)c1ccc(-c2ccc([As](=O)(O)O)cc2)cc1', 'inactive'),
  ('COC12OCCN(CCO)C1=CC(=O)C1(C)N=NC(C)C12 (stereo not drawn)', 'inactive'),
  ('CCC(C)C(=O)O[C@H]1C(=O)O[C@@H]2C[C@H]3C(C)=CC(=O)[C@@H](O)[C@]3(C)[C@H]3[C@@H](O)[C@H](O)[C@@]4(C)OC[C@]32[C@@H]14 (stereo partly drawn)', 'active'),
  ('CN(C)c1ccc(/C=C(\NC(=O)c2ccccc2)C(=O)Nc2ccccc2C(=O)NN2C(=O)CSC2c2ccc(N(C)C)cc2)cc1 (stereo not drawn)', 'inactive'),
  ('OCCCOC(c1ccccc1)(c1ccccc1)c1ccccc1', 'inactive');

---

Reported values of GI50 for individual entries
# Tested on: HOP-92
# TEST NAME: NCI tumour cell line growth inhibition, 48 h
Calls of active or inactive are those of the source. No stated cut-off is given here; in the data, active = GI50 up to about 1.1 µM and inactive = higher.
REPORTED ENDPOINT: GI50

INSERT INTO measurements (compound, assayed_system, reported_endpoint, result) VALUES
  ('O=C(CC(=O)n1nc(-c2ccccc2)c(/N=N/c2ccc(Cl)cc2)c1-c1ccccc1)Nc1cccc(Cl)c1', 'HOP-92', 'GI50', '> 100 µM (inactive)'),
  ('CC(=O)N1NC(c2ccccc2)=NC(=O)C1c1cc(C)c(O)c(C)c1 (stereo not given)', 'HOP-92', 'GI50', '19.8 µM (inactive)'),
  ('OCCCOC(c1ccccc1)(c1ccccc1)c1ccccc1', 'HOP-92', 'GI50', '20.6 µM (inactive)'),
  ('CC(=O)OCC1OC(Nc2ncc(-c3ccc(C)cc3)s2)C(OC(C)=O)C(OC(C)=O)C1OC(C)=O (stereo not given)', 'HOP-92', 'GI50', '42.6 µM (inactive)'),
  ('CC(O)CN1C(=O)NC(Cc2ccccc2)C1=O (stereo not given)', 'HOP-92', 'GI50', '> 100 µM (inactive)'),
  ('CN(C)c1n/c(=N/Cc2cccnc2)ss1', 'HOP-92', 'GI50', '> 10 µM (inactive)'),
  ('COc1ccccc1C1Nn2c(nc3ccccc3c2=O)N1c1ccc(C)cc1 (stereo not given)', 'HOP-92', 'GI50', '10.4 µM (inactive)'),
  ('N=C(N)c1ccc2oc3ccc(C(=N)N)cc3c(=O)c2c1', 'HOP-92', 'GI50', '> 100 µM (inactive)'),
  ('O=C(Nc1c(C(F)(F)F)cc(-c2ccccc2)[nH]c1=O)N1CCOCC1', 'HOP-92', 'GI50', '58.9 µM (inactive)'),
  ('O=C1C2C3C=C4c5ccccc5N(c5ccccc5)C4(C2C(=O)N1Cc1ccccc1)C1C(=O)N(Cc2ccccc2)C(=O)C31 (stereo not given)', 'HOP-92', 'GI50', '39.5 µM (inactive)');

---

# Test system: MDA-MB-435
# TEST NAME: NCI tumour cell line growth inhibition, 48 h
The source made the active and inactive calls. Rule as the data show it: active = GI50 up to about 1.1 µM and inactive = higher.
REPORTED ENDPOINT: GI50

INSERT INTO results (molecule, result) VALUES
  ('O=C(Nc1c(C(F)(F)F)cc(-c2ccccc2)[nH]c1=O)N1CCOCC1', '> 100 µM (inactive)'),
  ('Cc1cn(CCCCCOC(=O)NC(CCCNC(=N)N)C(=O)O)c(=O)[nH]c1=O (stereo unspecified)', '6.32 µM (inactive)'),
  ('CC(C)(C)c1cc(C(O)(C(=O)O)C(=O)O)cc(C(C)(C)C)c1O', '> 100 µM (inactive)'),
  ('C=C(C)CC1=C(OCC)C(OC)(OCC)C1=O (stereo unspecified)', '> 100 µM (inactive)'),
  ('CCCCCCCCCCCCCC(=O)OCC(CCS(=O)(=O)O[C@H]1CC[C@@]2(C)C(=CC[C@@H]3C2CC[C@]2(C)C(=O)CCC32)C1)OC(=O)CCCCCCCCCCCCC (stereo partly specified)', '> 100 µM (inactive)'),
  ('CC(NNC(=O)c1ccncc1)c1ccc(Cl)cc1Cl (stereo unspecified)', '> 100 µM (inactive)'),
  ('C=CCc1cccc2cc(C(=O)Nc3ccc(C)cc3)c(=N)oc12', '> 100 µM (inactive)'),
  ('Nc1cc(OCc2ccccc2)c(OCc2ccccc2)cc1C=O', '39.8 µM (inactive)'),
  ('CC(=O)OCC1OC(Oc2cc(C)c(O)cc2C/C=C(\C)CC/C=C(\C)CC(=O)CC(C)C)C(O)C(OC(C)=O)C1OC(C)=O (stereo unspecified)', '15 µM (inactive)'),
  ('CCOC(=O)/C=C(\C(=O)OCC)n1ccc(=O)n(Cc2cnnn2COCCOC(C)=O)c1=O', '8.59 µM (inactive)'),
  ('Cc1c2c(n(CCc3ccc(Cl)cc3)c1C)NC(c1ccccc1)C(C#N)S2(=O)=O (stereo unspecified)', '11.1 µM (inactive)'),
  ('Cc1ccc2c3c1[C@@H]1O[C@@H]1c1cccc(c1-3)[C@@H]1O[C@H]21', '14.1 µM (inactive)'),
  ('Cc1cc(=O)nc(S(=O)(=O)NC(=S)Nc2ccc(Cl)cc2)[nH]1', '> 100 µM (inactive)'),
  ('COc1cc(NS(C)(=O)=O)ccc1Nc1ccnc2ccc3[nH]ccc3c12', '15.6 µM (inactive)'),
  ('CCCCN(CC)C(=O)C1=C(C)NC(C)=C(C(=O)N(CC)CCCC)C1', '80 µM (inactive)'),
  ('O=S1(=O)OCCOS(=O)(=O)C1(F)Cc1ccccc1', '> 100 µM (inactive)'),
  ('COc1cc(C(N)=O)cc(NC(=O)/C=C/c2ccccc2)c1OC', '> 100 µM (inactive)'),
  ('CC(=O)N1C(c2[nH]c3ccccc3c2Cc2ccccc2)CCN1c1ccccc1 (stereo unspecified)', '9.06 µM (inactive)'),
  ('CCc1n[nH]c(=O)n1-c1ccncc1', '> 100 µM (inactive)'),
  ('CCOC(=O)CCC1(CCC(=O)OCC)CCCCCCCCC(CCC(=O)OCC)(CCC(=O)OCC)C(=O)C1=O', '> 100 µM (inactive)'),
  ('CC(C)=CCOc1cc(NC(=S)c2ccoc2C)ccc1Cl', '> 100 µM (inactive)'),
  ('CCOc1ccc(/N=N/c2ccc3cc(/C(C)=N/NC(=O)/C(C#N)=C\c4ccc(N(CCC#N)CCC#N)cc4)c(=O)oc3c2)cc1', '> 10 µM (inactive)'),
  ('CC(C)(C)OC(=O)NCC(CNC(=O)OC(C)(C)C)C(N)=O', '> 100 µM (inactive)'),
  ('Nc1ncnc2c1nc(Cl)n2C1OC2COP(=O)(O)OC2C1O (stereo unspecified)', '7.82 µM (inactive)'),
  ('CCC(C)C1=C(OC(C)=O)[N+]2([O-])Oc3ccc(-c4c(OC(C)=O)c(OC(C)=O)c(-c5ccc(OC(C)=O)cc5)c(OC(C)=O)c4OC(C)=O)cc3OC2(C(C)CC)C(=O)N1OC(C)=O (stereo unspecified)', '17.5 µM (inactive)'),
  ('COc1ccc(C)c2c1N[C@](C)([C@]1(C)Nc3c(OC)ccc(C)c3C1=O)C2=O', '44.7 µM (inactive)'),
  ('CN(CC(=O)O)c1ncc2c(n1)C=CCC2', '> 100 µM (inactive)'),
  ('CC1=C[C@@H](C)C[C@]2(C)CC[C@H](O2)[C@]23CC[C@](C(=O)O)(C[C@H](O2)[C@@H]2O[C@@](C)(CC2=O)[C@@H](O)[C@H]2CC[C@@]4(CCC[C@@H](O4)[C@H](C)C(=O)O[C@H]4C[C@H]([C@]5(O)OCC[C@H](C)[C@@H]5O)O[C@H]4C=C1)O2)O3', '> 10 µM (inactive)'),
  ('O=C(/C=C/c1ccc(O)cc1)NCCc1ccc(O)cc1', '> 12.5 µM (inactive)'),
  ('CN1CCOC1(C)c1ccccc1 (stereo unspecified)', '> 100 µM (inactive)'),
  ('CN1C(=O)CC(=O)N1/C(=C/c1ccccc1)c1ccccc1', '66.8 µM (inactive)'),
  ('Oc1nncc2[nH]c(-c3ccccc3)cc12', '28.2 µM (inactive)'),
  ('CC(=O)OCC(=O)O[C@@H]1[C@H]2[C@@H](OC(=O)c3ccccc3)[C@@H](C)C[C@]2(O)[C@H](OC(C)=O)[C@@]2(C)C[C@]1(OC(C)=O)C[C@H]1C(=O)C(C)(C)[C@@H](OC(C)=O)[C@@H]12', '10.8 µM (inactive)'),
  ('C=C1CCCCCCCCC/C=C/1SCCCSC', '> 100 µM (inactive)'),
  ('CCC1(CC)C(=O)CC[C@@]2(C)C1=CC[C@H]1[C@@H]3CC[C@H](O)[C@@]3(C)CC[C@@H]12', '61 µM (inactive)'),
  ('CC(C)C/C=C/C1=NN(c2cccc(S(=O)(=O)O)c2)C2(C1)SCC(=O)N2c1nc2ccccc2s1 (stereo unspecified)', '31.1 µM (inactive)');
